assay: PK test of compounds (mouse); assay type: in vivo, ICR mice; settings: PK test in mice
recordedEndpoint: bioavailability (in words)

C[C@H]1N2C(=O)c3c(O)c(=O)c(C(=O)NCc4ccc(F)cc4F)cn3C[C@@H]2OCC12CC2 [Compound 1]: good bioavailability
C[C@@H]1CC2(CC2)O[C@H]2Cn3cc(C(=O)NCc4ccc(F)cc4F)c(=O)c(O)c3C(=O)N12 [Compound 6]: good bioavailability
C[C@H]1N2C(=O)c3c(O)c(=O)c(C(=O)NCc4ccc(F)cc4F)cn3C[C@@H]2OCC12CCC2 [Compound 2]: good bioavailability
C[C@H]1N2C(=O)c3c(O)c(=O)c(C(=O)NCc4ccc(F)cc4F)cn3C[C@@H]2OC12CC2 [Compound 10]: good bioavailability
